- Target or test system: human recombinant glucocorticoids receptor (GR) (Homo sapiens)
- Sequence (P04150 whole entry): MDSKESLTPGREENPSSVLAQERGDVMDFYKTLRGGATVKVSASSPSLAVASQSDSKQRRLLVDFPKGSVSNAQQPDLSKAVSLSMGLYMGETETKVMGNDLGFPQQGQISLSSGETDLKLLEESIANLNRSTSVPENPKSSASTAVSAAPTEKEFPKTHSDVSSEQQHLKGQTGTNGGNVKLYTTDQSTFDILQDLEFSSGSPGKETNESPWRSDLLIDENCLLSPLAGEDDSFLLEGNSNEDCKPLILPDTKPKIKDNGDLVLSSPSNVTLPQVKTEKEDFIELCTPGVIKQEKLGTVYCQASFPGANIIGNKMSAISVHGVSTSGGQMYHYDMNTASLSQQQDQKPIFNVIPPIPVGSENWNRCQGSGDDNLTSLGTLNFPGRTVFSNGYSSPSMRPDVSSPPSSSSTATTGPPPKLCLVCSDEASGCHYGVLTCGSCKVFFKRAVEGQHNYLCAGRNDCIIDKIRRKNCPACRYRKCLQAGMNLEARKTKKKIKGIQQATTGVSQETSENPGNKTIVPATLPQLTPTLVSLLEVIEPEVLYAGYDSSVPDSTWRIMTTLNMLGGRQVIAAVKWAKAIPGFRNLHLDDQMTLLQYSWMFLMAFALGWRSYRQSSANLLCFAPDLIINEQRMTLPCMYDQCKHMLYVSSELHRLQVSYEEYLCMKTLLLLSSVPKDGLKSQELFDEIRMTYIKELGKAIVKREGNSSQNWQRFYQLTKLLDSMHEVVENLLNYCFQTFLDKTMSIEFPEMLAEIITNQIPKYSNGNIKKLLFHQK
- Run description: Radioactive ligand binding test, GR cytosol, [3H]-Dex
- Measurement context: [3H]-Dex about 5 nM, GR cytosol, 4° C.; Cheng-Prusoff, Kd about 3.1 nM; read-out: GR (Ki: nM)
# note: boundary value 40 nM maps to No; Ki below it maps to Yes

compound=CC1(C)Nc2c(cc(-c3cncc4nccn34)c3occc23)C(C)(C)C1=O category_label=No
compound=CC1(C)Nc2c(cc(-c3ccnc4ncccc34)c3c2CCC3)C(C)(C)C1=O category_label=Yes
compound="C=CCC1(C)C(=O)C(C)(C)Nc2c1cc(-c1ccc(O)cc1C)c1c2CCC1 (stereo not drawn)" category_label=No
compound="CC#CCC1(C)C(=O)C(C)(C)Nc2c1cc(-c1cccc3nccn13)c1c2CCC1 (stereo not drawn)" category_label=Yes
compound="C=CCC1(C)C(=O)C(C)(C)Nc2c1cc(-c1c(C)noc1C)c1c2CCC1 (stereo not drawn)" category_label=Yes
compound=CC1(C)Nc2c(cc(-c3cccc4nccn34)c3c2OCO3)C(C)(C)C1=O category_label=No

I'd appreciate it if you could check whether Cc1nnn(C)c1-c1cc2c(c3c1CCC3)NC(C)(C)C(=O)C2(C)C has Ki smaller than 40 nM.
No

I'd appreciate it if you could check whether Cc1noc(C)c1-c1cc2c(c3c1OCO3)NC(C)(C)C(=O)C2(C)C has Ki smaller than 40 nM.
No

I'd appreciate it if you could check whether CC1(C)Nc2c(cc(-c3cccc4ncccc34)c3occc23)C(C)(C)C1=O has Ki smaller than 40 nM.
Yes

I'd appreciate it if you could check whether CC1(C)Nc2c(cc(-c3ccnc4ncccc34)c3c2CCO3)C(C)(C)C1=O has Ki smaller than 40 nM.
No

I'd appreciate it if you could check whether CC1(C)Nc2c(cc(-c3cccc4nccn34)c3c2CCO3)C(C)(C)C1=O has Ki smaller than 40 nM.
Yes

I'd appreciate it if you could check whether CC1(C)Nc2c(cc(-c3cccc4ncccc34)c3c2OCO3)C(C)(C)C1=O has Ki smaller than 40 nM.
No

I'd appreciate it if you could check whether Cc1noc(C)c1-c1cc2c(c3c1OCC3)NC(C)(C)C(=O)C2(C)C has Ki smaller than 40 nM.
Yes

I'd appreciate it if you could check whether CC1(C)Nc2c(cc(-c3cccc4nncn34)c3c2CCC3)C(C)(C)C1=O has Ki smaller than 40 nM.
No

====

- Target or test system: human recombinant mineralocorticoid receptor (MR) (Homo sapiens, UniProt P08235)
- Construct: made in house; host or cells: insect cell Sf9 (baculovirus)
- Sequence (P08235 whole entry): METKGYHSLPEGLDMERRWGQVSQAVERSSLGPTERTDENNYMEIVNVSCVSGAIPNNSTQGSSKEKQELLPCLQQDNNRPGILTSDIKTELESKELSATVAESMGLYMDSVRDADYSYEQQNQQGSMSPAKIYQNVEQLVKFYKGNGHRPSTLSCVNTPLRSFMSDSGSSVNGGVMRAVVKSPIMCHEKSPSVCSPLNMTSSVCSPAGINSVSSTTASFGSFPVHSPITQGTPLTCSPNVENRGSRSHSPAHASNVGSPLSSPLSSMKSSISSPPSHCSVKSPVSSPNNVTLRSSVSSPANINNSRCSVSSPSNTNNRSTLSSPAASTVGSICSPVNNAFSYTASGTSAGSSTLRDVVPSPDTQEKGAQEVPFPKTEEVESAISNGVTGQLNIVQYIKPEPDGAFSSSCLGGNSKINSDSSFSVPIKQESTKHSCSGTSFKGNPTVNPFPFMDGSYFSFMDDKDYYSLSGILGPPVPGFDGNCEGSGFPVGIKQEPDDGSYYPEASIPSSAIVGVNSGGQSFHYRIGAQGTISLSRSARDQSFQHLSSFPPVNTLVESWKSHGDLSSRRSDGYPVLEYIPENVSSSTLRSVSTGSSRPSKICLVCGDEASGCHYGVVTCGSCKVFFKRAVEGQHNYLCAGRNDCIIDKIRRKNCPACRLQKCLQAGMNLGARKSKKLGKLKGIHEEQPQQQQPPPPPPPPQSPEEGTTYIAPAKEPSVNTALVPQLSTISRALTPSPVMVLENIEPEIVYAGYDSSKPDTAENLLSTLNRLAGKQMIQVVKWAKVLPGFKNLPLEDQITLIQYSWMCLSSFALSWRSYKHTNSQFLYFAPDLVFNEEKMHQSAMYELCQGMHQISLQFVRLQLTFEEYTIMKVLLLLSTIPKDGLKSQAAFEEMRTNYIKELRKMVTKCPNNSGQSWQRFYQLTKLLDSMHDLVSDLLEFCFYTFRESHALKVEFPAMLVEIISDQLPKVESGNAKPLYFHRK
- Run description: Radioactive ligand binding test, MR cytosol, [3H]-Ald
- Measurement context: [3H]-Ald about 4 nM, MR cytosol (Sf9), 4° C.; Cheng-Prusoff, Kd about 2.0 nM; read-out: MR (Ki: nM)
- Description: Radioactive Ligand Binding Test Using Cytosols of Human Glucocorticoids Receptor, Progesterone Receptor and Mineralocorticoid Receptor The procedures described in Neuroimmunomodulation (1994, 1, p. 66-73) and Invest. Opthalmol. Vis. Sci. (1996, 37, p. 805-813) were modified and used. […]
Readout kind: Ki

Assign Ki to the following record: CCC1(C)C(=O)C(C)(C)Nc2c1cc(-c1cccc3nccn13)c1c2CCC1 (stereo not shown)
> 1000 nM
